B1: BRF1 (parent)
chain: FVESSGGGSSAVGQFVSLDGAGKT

variants of: B1; assay: protein stability index of a GFP-peptide fusion (GPS, HEK-293T) (PSI 1-6); higher = more stable; conditions: c terminus: a fixed tail appended;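 also: lentivirally expressed fusions sorted by FACS into six bins by GFP to DsRed ratio, PSI derived from sequencing read proportions per bin multiplied by bin number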
Quick list: protein stability index per entry.

[
  {
    "mutationName": "L18T",
    "protein stability index": 2.04
  },
  {
    "mutationName": "S17E",
    "protein stability index": 2.53
  },
  {
    "mutationName": "T24F",
    "protein stability index": 1.62
  },
  {
    "mutationName": "V2M",
    "protein stability index": 4.49
  },
  {
    "mutationName": "G8V",
    "protein stability index": 1.95
  },
  {
    "mutationName": "G6W",
    "protein stability index": 2.5
  },
  {
    "mutationName": "V12F",
    "protein stability index": 2.01
  },
  {
    "mutationName": "G7M",
    "protein stability index": 2.05
  },
  {
    "mutationName": "F15I",
    "protein stability index": 2.55
  },
  {
    "mutationName": "V2I",
    "protein stability index": 3.22
  },
  {
    "mutationName": "V16K",
    "protein stability index": 2.16
  }
]
